# assayed-system: baculovirus-expressed ALK (Homo sapiens, UniProt Q9UM73)
# Construct: host or cells: baculovirus expression system
# Sequence (Q9UM73 19-1620): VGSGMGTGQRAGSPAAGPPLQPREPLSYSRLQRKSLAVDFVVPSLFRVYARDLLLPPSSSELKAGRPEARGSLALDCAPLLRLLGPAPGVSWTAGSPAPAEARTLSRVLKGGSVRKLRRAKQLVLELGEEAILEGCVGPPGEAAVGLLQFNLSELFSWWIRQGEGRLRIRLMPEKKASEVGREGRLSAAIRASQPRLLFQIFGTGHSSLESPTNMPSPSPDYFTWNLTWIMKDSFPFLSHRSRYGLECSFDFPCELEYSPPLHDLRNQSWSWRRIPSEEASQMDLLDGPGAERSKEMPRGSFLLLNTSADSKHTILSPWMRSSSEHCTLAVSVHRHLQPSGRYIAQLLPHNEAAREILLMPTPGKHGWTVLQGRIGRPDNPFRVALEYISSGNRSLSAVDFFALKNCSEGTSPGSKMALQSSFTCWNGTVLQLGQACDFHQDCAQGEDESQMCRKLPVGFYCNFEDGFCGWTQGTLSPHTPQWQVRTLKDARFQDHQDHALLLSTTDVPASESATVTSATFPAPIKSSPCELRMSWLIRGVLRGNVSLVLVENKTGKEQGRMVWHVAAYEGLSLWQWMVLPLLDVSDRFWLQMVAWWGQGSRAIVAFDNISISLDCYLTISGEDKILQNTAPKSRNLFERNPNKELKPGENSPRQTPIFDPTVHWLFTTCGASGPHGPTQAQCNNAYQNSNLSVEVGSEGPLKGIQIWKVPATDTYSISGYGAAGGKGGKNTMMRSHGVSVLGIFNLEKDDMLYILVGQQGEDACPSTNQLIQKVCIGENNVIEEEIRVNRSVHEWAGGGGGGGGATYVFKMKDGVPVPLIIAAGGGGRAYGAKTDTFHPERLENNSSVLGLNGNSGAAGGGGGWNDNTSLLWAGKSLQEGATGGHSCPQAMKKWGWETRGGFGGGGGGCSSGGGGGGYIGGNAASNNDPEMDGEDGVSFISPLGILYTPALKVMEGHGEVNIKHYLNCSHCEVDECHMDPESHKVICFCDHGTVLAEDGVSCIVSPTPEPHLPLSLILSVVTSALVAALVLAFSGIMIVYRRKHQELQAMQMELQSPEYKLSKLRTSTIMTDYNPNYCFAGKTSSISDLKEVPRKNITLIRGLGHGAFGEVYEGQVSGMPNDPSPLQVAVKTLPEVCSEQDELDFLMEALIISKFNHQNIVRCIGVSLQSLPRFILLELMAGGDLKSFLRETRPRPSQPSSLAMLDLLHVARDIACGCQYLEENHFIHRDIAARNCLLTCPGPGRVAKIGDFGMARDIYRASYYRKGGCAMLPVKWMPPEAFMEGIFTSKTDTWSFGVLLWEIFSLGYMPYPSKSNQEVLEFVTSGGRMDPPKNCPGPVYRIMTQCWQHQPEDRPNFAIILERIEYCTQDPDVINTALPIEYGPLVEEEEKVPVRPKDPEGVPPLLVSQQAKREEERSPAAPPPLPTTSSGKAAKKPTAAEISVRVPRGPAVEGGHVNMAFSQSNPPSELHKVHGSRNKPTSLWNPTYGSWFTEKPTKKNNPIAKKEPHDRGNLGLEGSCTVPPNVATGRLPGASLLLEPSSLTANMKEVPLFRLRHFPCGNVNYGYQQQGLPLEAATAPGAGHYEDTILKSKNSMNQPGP
# test-name: ALK Kinase Assay (ELISA-type, time-resolved fluorescence)
# Type: biochemical
# conditions: 1 μM ATP (Km level), 30 ng/ml ALK, 37° C., 15 minutes; read-out: ALK Activity (ALK kinase inhibition, IC50 class)
pIC50: −log10 of the molar value.
endpoint-label: pIC50

Some compounds with known pIC50 results, for comparison:
| compound | pIC50 |
| --- | --- |
| COc1cc2c(cc1Nc1ncc(Cl)c(Nc3ccccc3OC)n1)CCN(CCS(C)(=O)=O)CC2 [Example 1132] | > 7.00 |
| CNC(=O)c1cccc(F)c1Nc1nc(Nc2ccc3c(c2)OCCCN3C(=O)OC(C)C)ncc1Cl [Example 1432] | 6.00 to 7.00 |
| C#CCNC(=O)c1cccc(F)c1Nc1nc(Nc2ccc3c(c2)N(CC)C(=O)CCC3(C)C)ncc1Cl [Example 1405] | 6.00 to 7.00 |

Proceeding to the next compound to report its pIC50.
Entry CN(C)S(=O)(=O)c1ccccc1Nc1nc(Nc2ccc3c(c2)CCC(O)CC3)ncc1Cl (centres unmarked) [Example 1033] : reported pIC50 = ? > 7.00
